Numbers sourced from patent US20210388087A1.

molecular target: T1, Biotin-labeled CD3 epsilon peptide antigen (human, also: biotin-labeled, site not given here); test: bead ELISA, IgG on biotinylated CD3 epsilon peptide, luminescence
T1 construct: also called CD3 peptide
T1 peptide: QDGNEEMGGITQTPY
Where no end group is shown, it is not given here.
Below, each of the binders is paired with its reported S/N ratio (CD3 peptide/non coating) value.
# respond with the number and nothing more

Answered examples (2):
DADU01_3#001 (antibody, V domains shown, Human IgG1; light chain GLS3000 (kappa); also called dBBDu126; dBBDu_126) VH: QVQLVESGGGLVQPGRSLRLSCAASGFTFSIAWMHWVRQAPGKGLEWVAQIKDRVNAYEAYYAPSVKGRFTISRDDSKNSIYLQMNSLKTEDTAVYYCRYVHYASYYDLLGYGGVDAWGQGTTVTVSS VL: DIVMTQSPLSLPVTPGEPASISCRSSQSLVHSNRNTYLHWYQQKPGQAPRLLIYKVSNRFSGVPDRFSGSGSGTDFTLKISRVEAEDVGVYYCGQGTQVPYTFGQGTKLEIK	146
DXDU01_3#019 (antibody, V domains shown, Human IgG1; light chain GLS3000 (kappa); also called dBBDu125) VH: QVQLVESGGGLVQPGRSLRLSCAASGFTFSIAWMHWVRQAPGKGLEWVAQIKDKVNGYTAYYAESVKGRFTISRDDSKNSIYLQMNSLKTEDTAVYYCRYVHYAAYYDVLGYGGVDAWGQGTTVTVSS VL: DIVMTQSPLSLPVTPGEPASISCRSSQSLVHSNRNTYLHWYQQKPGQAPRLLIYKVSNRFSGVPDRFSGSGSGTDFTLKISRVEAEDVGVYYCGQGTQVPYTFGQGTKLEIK	161

Now look at this one.
Data request: So what's the measured S/N ratio (CD3 peptide/non coating) for this one? DXDU01_3#094 (antibody, V domains shown, Human IgG1; light chain GLS3000 (kappa); also called dBBDu121) VH: QVQLVESGGGLVQPGRSLRLSCAASGFTFSNAWMHWVRQAPGKGLEWVAQIKDKGNAYAAYYAPSVKGRFTISRDDSKNSIYLQMNSLKTEDTAVYYCHYVHYASAAGGLPGFGVDAWGQGTTVTVSS VL: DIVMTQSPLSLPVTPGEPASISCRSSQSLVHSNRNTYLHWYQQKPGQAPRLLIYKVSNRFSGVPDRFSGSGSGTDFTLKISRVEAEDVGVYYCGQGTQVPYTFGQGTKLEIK
Data returned: 141
